Test system: Viola tricolor
Assay: Post-emergence herbicidal action
Format: in vivo
Details: 1280 g/ha, rated visually after about 3 weeks vs untreated controls
READOUT_KIND: herbicidal activity on Viola tricolor

1. Cc1c(Sc2cccc(F)c2)c(Oc2ncc(F)cn2)nn1C = 100%
2. Cn1cc(Sc2ccc(F)cc2)c(Oc2ncc(Cl)cn2)n1 = 100%
3. Cc1c(Sc2cccc(Cl)c2)c(Oc2ncc(F)cn2)nn1C = 100%

Batch request: herbicidal activity on Viola tricolor per item, same order as input.
1. Cn1cc(Sc2ccccc2)c(Oc2ncccn2)n1
2. CCn1cc(Sc2ccc(F)cc2)c(Oc2ncccn2)n1
3. CCn1cc(Sc2ccc(Cl)cc2)c(Oc2ncc(F)cn2)n1
4. CC(C)n1cc(Sc2ccc(F)cc2)c(Oc2ncc(Cl)cn2)n1
5. CCn1cc(Sc2ccc(F)cc2)c(Oc2ncc(F)cn2)n1
6. Cc1c(Sc2ccc(F)c(F)c2)c(Oc2ncc(F)cn2)nn1C
7. Cn1cc(Sc2ccccc2)c(Oc2ncc(Cl)cn2)n1

Return:
1: 80%; 2: 90%; 3: 100%; 4: 100%; 5: 80%; 6: 100%; 7: 100%

====

Test system: Viola tricolor
Assay: Post-emergence herbicidal action
Format: in vivo
Conditions: 1280 g/ha, rated visually after about 3 weeks vs untreated controls
READOUT_KIND: herbicidal activity on Viola tricolor
Answer by giving the amount and then stating its unit.

1. Cc1c(Sc2ccc(F)cc2F)c(Oc2ncc(F)cn2)nn1C = 100%
2. Fc1ccc(Sc2c(Oc3ncccn3)nn3c2CCC3)cc1 = 80%
3. CCn1cc(Sc2ccc(F)cc2)c(Oc2ncc(Cl)cn2)n1 = 80%
4. Cc1c(Sc2ccc(F)cc2Cl)c(Oc2ncc(F)cn2)nn1C = 100%

Batch request: herbicidal activity on Viola tricolor per item, same order as input.
1. Cc1c(Sc2ccc(F)cc2)c(Oc2ncc(Cl)cn2)nn1C
2. Cc1c(Sc2ccc(F)cc2)c(Oc2ncccn2)nn1C

Return:
100%
100%

Batch request: herbicidal activity on Viola tricolor per item, same order as input.
1. CCc1c(Sc2ccc(F)cc2F)c(Oc2ncccn2)nn1C
2. COc1cnc(Oc2nn(C)c(C)c2Sc2ccc(F)c(F)c2)nc1
3. Cc1c(Sc2ccc(F)cc2)c(Oc2ncc(F)cn2)nn1C

Return:
1: 100%; 2: 100%; 3: 100%

====

Test system: Viola tricolor
Assay: Post-emergence herbicidal action
Assay type: in vivo
Conditions: 1280 g/ha, rated visually after about 3 weeks vs untreated controls
READOUT_KIND: herbicidal activity on Viola tricolor (%)
One number for each entry, in %.

// known answers, use as guide
1. CCc1c(Sc2cccc(Cl)c2)c(Oc2ncccn2)nn1C = 100
2. Cc1c(Sc2ccc(F)cc2Cl)c(Oc2ncccn2)nn1C = 100
3. Fc1ccc(Sc2c(Oc3ncccn3)nn3c2CCOCC3)c(F)c1 = 90

Batch request: herbicidal activity on Viola tricolor per item, same order as input.
1. CCc1c(Sc2ccc(F)c(F)c2)c(Oc2ncc(F)cn2)nn1C
2. Fc1ccc(Sc2c(Oc3ncc(F)cn3)nn3c2CCOCC3)cc1

Return:
[100, 90]

====

Exercise: state measured herbicidal activity on Viola tricolor for each of the compounds provided.
System: Viola tricolor
Assay: Post-emergence herbicidal action
Format: in vivo
Conditions: 1280 g/ha, rated visually after about 3 weeks vs untreated controls
Numbers only, in %.

// known answers, use as guide
1) COc1cnc(Oc2nn(C)c(C)c2Sc2cccc(Cl)c2)nc1 [Example I-134] = 100
2) CCc1c(Sc2ccccc2)c(Oc2ncc(F)cn2)nn1C [Example I-155] = 100
3) Cc1c(Sc2ccccc2)c(Oc2ncc(F)cn2)nn1C [Example I-133] = 100
4) CC(C)n1cc(Sc2ccc(F)cc2)c(Oc2ncccn2)n1 [Example I-039] = 100
5) CCc1c(Sc2ccc(F)c(F)c2)c(Oc2ncccn2)nn1C [Example I-062] = 100

Batch request: herbicidal activity on Viola tricolor per item, same order as input.
1. CCn1cc(Sc2ccccc2)c(Oc2ncc(Cl)cn2)n1 [Example I-138]
2. CCc1c(Sc2ccc(F)cc2)c(Oc2ncc(OC)cn2)nn1C [Example I-186]
3. Cc1c(Sc2ccc(F)cc2F)c(Oc2ncccn2)nn1C [Example I-044]
4. Fc1cnc(Oc2nn3c(c2Sc2ccc(F)cc2F)CCOCC3)nc1 [Example I-192]
5. COc1cnc(Oc2nn(C)c(C)c2Sc2ccccc2)nc1 [Example I-140]

Return:
1. 80
2. 100
3. 100
4. 80
5. 100
